- Test system: Perennial rye grass
- protocolText: Turf grass selectivity, greenhouse pot test
- Type: in vivo
- testContext: 25 g ai/ha, 2 weeks
Recorded phytotoxicity (visual assessment 0-10) values for a group of compounds are listed next.

{"columns": ["compound", "assaySystem", "phytotoxicity (visual assessment 0-10)"],
 "data": [
  ["Cc1cc(C)nc(NC(=O)NS(=O)(=O)c2ccccc2C(O)C(C)F)n1 (stereo not shown)", "Perennial rye grass", 0],
  ["COc1cc(OC)nc(NC(=O)NS(=O)(=O)c2ncccc2C(F)(F)F)n1 [Control chemical No. 2, Flazasulfuron, reference compound]", "Perennial rye grass", 10],
  ["COc1nc(C)nc(NC(=O)NS(=O)(=O)c2cscc2C2(CF)OCCO2)n1", "Perennial rye grass", 10],
  ["CCOC(=O)c1cnn(C)c1S(=O)(=O)NC(=O)Nc1nc(OC)cc(OC)n1 [Control chemical No. 1, Pyrazosulfuron ethyl, reference compound]", "Perennial rye grass", 0]
]}
